# SYSTEM_TESTED: hepatic lipase (HL) (Homo sapiens (Human))
# Sequence (P11150 23-499, species assumed): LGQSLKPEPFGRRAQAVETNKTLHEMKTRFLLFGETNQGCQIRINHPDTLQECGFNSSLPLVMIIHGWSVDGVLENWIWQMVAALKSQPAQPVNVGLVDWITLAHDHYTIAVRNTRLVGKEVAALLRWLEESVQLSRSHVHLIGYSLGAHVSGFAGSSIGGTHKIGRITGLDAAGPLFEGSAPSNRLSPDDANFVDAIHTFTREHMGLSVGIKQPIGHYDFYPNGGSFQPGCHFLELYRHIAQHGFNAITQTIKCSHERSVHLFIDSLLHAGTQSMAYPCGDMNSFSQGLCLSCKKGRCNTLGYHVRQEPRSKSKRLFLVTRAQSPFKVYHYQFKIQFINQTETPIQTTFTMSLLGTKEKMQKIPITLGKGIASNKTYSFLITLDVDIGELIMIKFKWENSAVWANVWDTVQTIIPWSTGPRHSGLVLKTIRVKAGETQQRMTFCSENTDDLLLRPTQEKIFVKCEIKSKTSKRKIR
# METHOD_NOTES: HL assay: hepatic lipase activity with fluorescent substrate A10070 in DMPG vesicles
# Format: biochemical
MEASURED_PARAMETER: IC50 (nM)

molecule="NS(=O)(=O)CCNC(=O)C(c1nc2cc(F)c(-c3ccccc3)cc2s1)S(=O)(=O)CCC(F)(F)F (stereo not shown) [Example B136]" measured_parameter=IC50 recorded_result=11

a = NS(=O)(=O)CCNC(=O)C(c1nc2ccc(-c3cncnc3)cc2s1)S(=O)(=O)Cc1ccccc1 (stereo not shown) [Example B140]
b = NS(=O)(=O)CCNC(=O)C(c1nc2ccc(-c3ccnc(O)c3F)cc2s1)S(=O)(=O)CCC(F)(F)F (stereo not shown) [Example B375]
Prompt: a or b : whose IC50 is greater? Output the label that corresponds to your choice.
Response: a

###

# SYSTEM_TESTED: Endothelial lipase (EL) (Homo sapiens (Human), UniProt Q9Y5X9)
# Sequence (Q9Y5X9 21-500): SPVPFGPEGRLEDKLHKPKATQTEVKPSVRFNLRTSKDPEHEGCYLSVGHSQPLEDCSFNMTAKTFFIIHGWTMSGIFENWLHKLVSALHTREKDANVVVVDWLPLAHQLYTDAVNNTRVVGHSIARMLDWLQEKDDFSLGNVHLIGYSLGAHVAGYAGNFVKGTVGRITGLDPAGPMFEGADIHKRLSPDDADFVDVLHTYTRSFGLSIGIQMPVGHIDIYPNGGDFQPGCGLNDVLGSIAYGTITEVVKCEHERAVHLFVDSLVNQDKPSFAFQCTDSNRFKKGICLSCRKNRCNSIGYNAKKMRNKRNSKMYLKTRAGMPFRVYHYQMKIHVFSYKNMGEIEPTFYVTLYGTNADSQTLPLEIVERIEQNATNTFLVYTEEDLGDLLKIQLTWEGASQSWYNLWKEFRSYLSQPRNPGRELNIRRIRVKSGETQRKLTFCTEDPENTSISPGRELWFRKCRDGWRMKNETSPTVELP
# METHOD_NOTES: EL assay: endothelial lipase activity with fluorescent substrate A10070 in DMPG vesicles
# Type: biochemical
# PARTICULARS: EL from conditioned media of HT-1080 cells; 30 min incubation with compound at 37° C.; A10070/DMPG vesicles
pIC50: −log10 of the molar value.
MEASURED_PARAMETER: pIC50

Solved cases (10 shown):
molecule="CS(=O)(=O)C(C(=O)NCCS(N)(=O)=O)c1nc2ccc(-c3nnc(-c4ccc(F)cc4)o3)cc2s1 (centres unmarked) [Example B395]" recorded_result=6.83
molecule="CS(=O)(=O)C(C(=O)NCCS(N)(=O)=O)c1nc2ccc(-c3ccc(CN4CCOCC4)cc3)cc2s1 (centres unmarked) [Example B13]" recorded_result="> 8.00"
molecule="CC(=O)Nc1ccc(-c2ccc3nc(C(C(=O)NCCS(N)(=O)=O)S(C)(=O)=O)sc3c2)cc1 (centres unmarked) [Example B16]" recorded_result=7.40
molecule="CCCS(=O)(=O)C(C(=O)NCCS(N)(=O)=O)c1nc2ccc(-c3ccnc(F)c3)cc2s1 (centres unmarked) [Example B15]" recorded_result="> 8.00"
molecule="NS(=O)(=O)CCNC(=O)C(c1nc2ccc(C(=O)N3CCC(F)(F)C3)cc2s1)S(=O)(=O)CCC(F)(F)F (centres unmarked) [Example B197]" recorded_result="> 8.00"
molecule="COc1ccc(-c2ccc3nc(C(C(=O)NCCS(N)(=O)=O)S(C)(=O)=O)sc3c2)cn1 (centres unmarked) [Example B19]" recorded_result="> 8.00"
molecule="CS(=O)(=O)C(C(=O)NCCS(=O)(=O)Nc1ccccc1)c1nc2ccc(-c3ccnc(F)c3)cc2s1 (centres unmarked) [Example B24]" recorded_result=7.46
molecule="CC(C)c1cc(CNC(=O)C(C)(C)c2nc3ccc(-c4ccccc4)cc3s2)on1 [Reference 2, reference compound]" recorded_result="< 4.21"
molecule="NC(=O)c1ccc(-c2cc3sc(C(C(=O)N[C@@H]4CCNC4=O)S(=O)(=O)Cc4ccccc4)nc3cc2F)cc1 (some centres unmarked) [Example B27]" recorded_result=7.03
molecule="CC1(O)CN(C(=O)c2ccc(-c3ccc4nc(C(C(=O)NCCS(N)(=O)=O)S(C)(=O)=O)sc4c3)cc2)C1 (centres unmarked) [Example B174]" recorded_result="> 8.00"

Prompt: What does the data say about its pIC50? Entry: CS(=O)(=O)C(C(=O)NCCS(N)(=O)=O)c1nc2ccc(-c3ccc(Cl)nc3)cc2s1 (centres unmarked) [Example B10]
Response: > 8.00

Prompt: Query C=CCS(=O)(=O)C(C(=O)NCCS(N)(=O)=O)c1nc2ccc(-c3ccccc3)cc2s1 (centres unmarked) [Example B2] next
Response: > 8.00

Prompt: Query CS(=O)(=O)C(C(=O)NCCS(N)(=O)=O)c1nc2ccc(-c3cnn(C4CCNCC4)c3)cc2s1 (centres unmarked) [Example B98] next
Response: > 8.00

Prompt: Query COCCNC(=O)c1cccc(-c2ccc3nc(C(C(=O)NCCS(N)(=O)=O)S(=O)(=O)CCC(F)(F)F)sc3c2)c1 (centres unmarked) [Example B202] next
Response: 7.62

Prompt: Query CC(C)(C)NC(=O)c1ccc(-c2ccc3nc(C(C(=O)NCCS(N)(=O)=O)S(C)(=O)=O)sc3c2)cc1 (centres unmarked) [Example B31] next
Response: > 8.00

Prompt: Query CS(=O)(=O)C(C(=O)NCCS(N)(=O)=O)c1nc2ccc(-c3ccc(C(=O)O)cc3)cc2s1 (centres unmarked) [Example B173] next
Response: > 8.00
